Substrate: C[N+](C)(C)CCOP(=O)(O)OP(=O)([O-])OC[C@H]1O[C@@H](n2ccc(N)nc2=O)[C@H](O)[C@@H]1O
assayText: colorimetric Pi assay coupled to alkaline phosphatase, saturation kinetics
Format: biochemical, Homo sapiens
conditionContext: 5 mM MnCl2, pH 7.5, 37°C
From the text: colorimetric Pi assay coupled to alkaline phosphatase, saturation kinetics on human ADPRibase-Mn
Item-by-item account of Km
observationType: Km

[
  {
    "protein": "human ADPRibase-Mn (Homo sapiens; H111A) (protein, full length, 342 aa; expressed as GST fusion (pGEX-6P-3), GST cut off with PreScission protease, 11-aa N-terminal extension …) MDDKPNPEALSDSSERLFSFGVIADVQFADLEDGFNFQGTRRRYYRHSLLHLQGAIEDWNNESSMPCCVLQLGDIIDGYNAQYNASKKSLELVMDMFKRLKVPVHHTWGNAEFYNFSREYLTHSKLNTKFLEDQIVHHPETMPSEDYYAYHFVPFPKFRFILLDAYDLSVLGVDQSSPKYEQCMKILREHNPNTELNSPQGLSEPQFVQFNGGFSQEQLNWLNEVLTFSDTNQEKVVIVSHLPIYPDASDNVCLAWNYRDALAVIWSHECVVCFFAGHTHDGGYSEDPFGVYHVNLEGVIETAPDSQAFGTVHVYPDKMMLKGRGRVPDRIMNYKKERAFHC",
    "valueReported": "7.5 ± 0.7 mM"
  },
  {
    "protein": "human ADPRibase-Mn (Homo sapiens; Q27H) (protein, full length, 342 aa; expressed as GST fusion (pGEX-6P-3), GST cut off with PreScission protease, 11-aa N-terminal extension …) MDDKPNPEALSDSSERLFSFGVIADVHFADLEDGFNFQGTRRRYYRHSLLHLQGAIEDWNNESSMPCCVLQLGDIIDGYNAQYNASKKSLELVMDMFKRLKVPVHHTWGNHEFYNFSREYLTHSKLNTKFLEDQIVHHPETMPSEDYYAYHFVPFPKFRFILLDAYDLSVLGVDQSSPKYEQCMKILREHNPNTELNSPQGLSEPQFVQFNGGFSQEQLNWLNEVLTFSDTNQEKVVIVSHLPIYPDASDNVCLAWNYRDALAVIWSHECVVCFFAGHTHDGGYSEDPFGVYHVNLEGVIETAPDSQAFGTVHVYPDKMMLKGRGRVPDRIMNYKKERAFHC",
    "valueReported": "2.7 ± 0.2 mM"
  },
  {
    "protein": "human ADPRibase-Mn (Homo sapiens; F210A) (protein, full length, 342 aa; expressed as GST fusion (pGEX-6P-3), GST cut off with PreScission protease, 11-aa N-terminal extension …) MDDKPNPEALSDSSERLFSFGVIADVQFADLEDGFNFQGTRRRYYRHSLLHLQGAIEDWNNESSMPCCVLQLGDIIDGYNAQYNASKKSLELVMDMFKRLKVPVHHTWGNHEFYNFSREYLTHSKLNTKFLEDQIVHHPETMPSEDYYAYHFVPFPKFRFILLDAYDLSVLGVDQSSPKYEQCMKILREHNPNTELNSPQGLSEPQFVQANGGFSQEQLNWLNEVLTFSDTNQEKVVIVSHLPIYPDASDNVCLAWNYRDALAVIWSHECVVCFFAGHTHDGGYSEDPFGVYHVNLEGVIETAPDSQAFGTVHVYPDKMMLKGRGRVPDRIMNYKKERAFHC",
    "valueReported": "11 ± 2.6 mM"
  }
]
